- Test system: Glutamate receptor ionotropic, NMDA 1 (Rattus norvegicus)
pKi: −log10 of the molar value.
Catalogue of pKi values
Parameter: pKi

[[record]]
compound = "NC(=O)N1c2ccccc2C=Cc2ccccc21 [5H-dibenzo[b,f]azepine-5-carboxamide]"
reading = "< 5.00"

[[record]]
compound = "COC(=O)c1cc(NC(=O)N(c2ccccc2)c2ccccc2)c2c(Cl)cc(Cl)cc2n1 [DCUK-Ome]"
reading = "< 5.00"


Taken from BindingDB's records for PubMed 10604951.
